For each of the substances below, state its Count.
# system: Human MPZ (human) (UniProt P25189)
# Sequence (P25189 30-153 limits assumed): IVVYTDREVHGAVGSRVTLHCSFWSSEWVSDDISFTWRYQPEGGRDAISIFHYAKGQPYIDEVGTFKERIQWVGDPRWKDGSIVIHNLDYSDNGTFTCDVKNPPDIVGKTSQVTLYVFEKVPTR
# test: phage display, NGS count
Answers are plain numbers.

- FALPAGL (peptide): 41
- VHTPYRS (peptide): 41

For the 2 substances below, give their Count values.
1. FPSYTIS (peptide)
2. VVPLKWI (peptide)

1: 40; 2: 40

For the 5 substances below, give their Count values.
1. MIHTRQT (peptide)
2. FSPRDVS (peptide)
3. DRYLLNQ (peptide)
4. HHPLFID (peptide)
5. VPLAYLR (peptide)

1: 41; 2: 39; 3: 40; 4: 39; 5: 40
